Reported zone of inhibition at 200 µg/disc values are given for each entry in this list.
- System: Micrococcus luteus
- experimental.details: Antibacterial activity against Micrococcus luteus at 200 ug/disk after 24 hrs by disk diffusion method
- Type: functional
- measurement.context: Micrococcus luteus, 24 h; read-out: DIZ
Write down the numeric answer in mm and omit the unit.

{"compound": "Cc1ccc2nc(S)n(Cc3ccccc3)c(=O)c2c1", "zone of inhibition at 200 µg/disc / mm": 14}
{"compound": "O=c1c2cc([N+](=O)[O-])ccc2nc(S)n1Cc1ccccc1", "zone of inhibition at 200 µg/disc / mm": 16}
{"compound": "Nc1ccc2ncn(Cc3ccccc3)c(=O)c2c1", "zone of inhibition at 200 µg/disc / mm": 20}

Now, please, on to the next compound.
Request: Input C=CCSc1nc2ccc(NC/C=C/c3ccccc3)cc2c(=O)n1Cc1ccccc1 , output reported zone of inhibition at 200 µg/disc.
Response: 16

----------
- Test system: Staphylococcus aureus
- experimental.details: Antibacterial activity against Staphylococcus aureus after 24 hrs by microdilution susceptibility method
- Type: functional
measurement.name: MIC
Form entry: enter the amount, then its unit.

{"molecule": "CC(=O)NS(=O)(=O)c1ccc(N)cc1 [SULFACETAMIDE]", "measurement.name": "MIC", "val": "1 µg/mL"}
{"molecule": "C=CCSc1nc2ccc(NC(=O)/C=C/c3ccccc3)cc2c(=O)n1Cc1ccccc1", "measurement.name": "MIC", "val": "8 µg/mL"}

Request: Provide measured MIC value, entry: C=CCSc1nc2ccc(NC/C=C/c3ccccc3)cc2c(=O)n1Cc1ccccc1
Response: 8 µg/mL

----------
Assay read-out pIC50; system under study: Dihydrofolate reductase (Bos taurus).
Sequence (P00376 whole entry): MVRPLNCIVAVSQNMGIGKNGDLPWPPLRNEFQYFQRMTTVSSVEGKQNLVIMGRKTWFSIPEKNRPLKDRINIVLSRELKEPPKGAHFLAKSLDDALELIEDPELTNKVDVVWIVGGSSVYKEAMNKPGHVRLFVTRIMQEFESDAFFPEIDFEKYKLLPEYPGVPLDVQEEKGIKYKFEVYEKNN
// scale note: pIC50 = -log10(conc_M); give the bare number

Answered examples (5):
{"molecule": "C=CCSc1nc2ccc(N)cc2c(=O)n1Cc1ccccc1", "val": 5.10}
{"molecule": "CSc1nc2ccc(N(C/C=C/c3ccccc3)C/C=C/c3ccccc3)cc2c(=O)n1Cc1ccccc1", "val": 6.22}
{"molecule": "Cc1ccc2nc(S)n(Cc3ccccc3)c(=O)c2c1", "val": 4.52}
{"molecule": "CSc1nc2ccc(NC(=O)/C=C/c3ccccc3)cc2c(=O)n1Cc1ccccc1", "val": 6.22}
{"molecule": "CCOC(=O)CCSc1nc2ccc([N+](=O)[O-])cc2c(=O)n1Cc1ccccc1", "val": 4.60}

Request: Could you please provide reported pIC50 for O=c1c2cc([N+](=O)[O-])ccc2nc(SCc2ccccc2)n1Cc1ccccc1 ? Thanks!
Response: 4.52

Request: Answer with reported pIC50 of CSc1nc2ccc([N+](=O)[O-])cc2c(=O)n1Cc1ccccc1
Response: 4.52

----------
- Tested on: Bacillus subtilis
- experimental.details: Antibacterial activity against Bacillus subtilis at 200 ug/disk after 24 hrs by disk diffusion method
- Assay type: functional
The source made the active and inactive calls. The rule behind the calls is not given here.
measurement.name: diameter of the inhibition zone (DIZ)

Known diameter of the inhibition zone (DIZ) results, listed for orientation:
{"compound": "C=CC(=O)Nc1ccc2nc(SC/C=C/c3ccccc3)n(Cc3ccccc3)c(=O)c2c1", "val": "inactive"}
{"compound": "Cc1ccc2nc(SCc3ccccc3)n(Cc3ccccc3)c(=O)c2c1", "val": "inactive"}
{"compound": "C=CCNc1ccc2nc(SCC=C)n(Cc3ccccc3)c(=O)c2c1", "val": "inactive"}
{"compound": "CSc1nc2ccc(N)cc2c(=O)n1Cc1ccccc1", "val": "inactive"}
{"compound": "CSc1nc2ccc(NC/C=C/c3ccccc3)cc2c(=O)n1Cc1ccccc1", "val": "inactive"}
{"compound": "Nc1ccc2nc(SC/C=C/c3ccccc3)n(Cc3ccccc3)c(=O)c2c1", "val": "inactive"}
{"compound": "C=CCSc1nc2ccc(N(CC=C)CC=C)cc2c(=O)n1Cc1ccccc1", "val": "inactive"}
{"compound": "C=CCN(CC=C)c1ccc2nc(SC)n(Cc3ccccc3)c(=O)c2c1", "val": "inactive"}

Request: Provide measured diameter of the inhibition zone (DIZ) value, entry: C=CCNc1ccc2nc(SC)n(Cc3ccccc3)c(=O)c2c1
Response: inactive

Request: Report measured diameter of the inhibition zone (DIZ); entry is C=CCn1c(SSc2nc(=O)c3cc([N+](=O)[O-])ccc3n2CC=C)nc(=O)c2cc([N+](=O)[O-])ccc21
Response: inactive

Request: Entry C=CCSc1nc2ccc(NC(=O)C=C)cc2c(=O)n1Cc1ccccc1 needs its diameter of the inhibition zone (DIZ) filled in; supply it.
Response: inactive

Request: Could you please provide reported diameter of the inhibition zone (DIZ) for CCSc1nc2ccc(C)cc2c(=O)n1Cc1ccccc1 ? Thanks!
Response: inactive

Request: For the molecule C=CC(=O)Nc1ccc2nc(SC)n(Cc3ccccc3)c(=O)c2c1 , report diameter of the inhibition zone (DIZ).
Response: inactive

----------
- target.entity: Dihydrofolate reductase (Homo sapiens, UniProt P00374)
- Sequence (P00374 whole entry): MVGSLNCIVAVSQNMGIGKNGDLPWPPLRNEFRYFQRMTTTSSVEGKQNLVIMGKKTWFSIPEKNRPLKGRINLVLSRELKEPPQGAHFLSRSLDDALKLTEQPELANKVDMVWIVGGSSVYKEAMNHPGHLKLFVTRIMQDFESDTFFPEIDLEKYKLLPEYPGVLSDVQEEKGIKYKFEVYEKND
measurement.name: IC50 (nM)
Please state the figure in nM; there is no need to write the unit.

{"molecule": "C=CCSc1nc2ccc(C)cc2c(=O)n1Cc1ccccc1", "IC50 [nM]": 4000}
{"molecule": "C=CCSc1nc2ccc(N)cc2c(=O)n1Cc1ccccc1", "IC50 [nM]": 5000}
{"molecule": "C=CCN(CC=C)c1ccc2nc(SC)n(Cc3ccccc3)c(=O)c2c1", "IC50 [nM]": 1000}

Request: Tell me measured IC50 for CSc1nc2ccc(NC/C=C/c3ccccc3)cc2c(=O)n1Cc1ccccc1 please.
Response: 2000

Request: Read off the recorded IC50 for C=CCSc1nc2ccc([N+](=O)[O-])cc2c(=O)n1Cc1ccccc1
Response: 2000

Request: Please supply the value of reported IC50 for the item CSc1nc2ccc(NC(=O)/C=C/c3ccccc3)cc2c(=O)n1Cc1ccccc1
Response: 1000

----------
- System: Escherichia coli
- experimental.details: Antibacterial activity against Escherichia coli at 200 ug/disk after 24 hrs by disk diffusion method
- Format: functional
The source made the active and inactive calls. No cut-off for these calls is given here.
measurement.name: diameter of the inhibition zone (DIZ)

Solved entries:
{"compound": "C=CCSc1nc2ccc([N+](=O)[O-])cc2c(=O)n1Cc1ccccc1", "val": "inactive"}
{"compound": "CCSc1nc2ccc(C)cc2c(=O)n1Cc1ccccc1", "val": "inactive"}
{"compound": "O=c1c2cc([N+](=O)[O-])ccc2nc(S)n1Cc1ccccc1", "val": "inactive"}
{"compound": "C=CCN(CC=C)c1ccc2nc(SC)n(Cc3ccccc3)c(=O)c2c1", "val": "inactive"}
{"compound": "C=CCSc1nc2ccc(N(CC=C)CC=C)cc2c(=O)n1Cc1ccccc1", "val": "inactive"}

Request: Report diameter of the inhibition zone (DIZ) from Escherichia coli testing of C=CCNc1ccc2nc(SCC=C)n(Cc3ccccc3)c(=O)c2c1
Response: inactive

----------
- System: Micrococcus luteus
- experimental.details: Antibacterial activity against Micrococcus luteus after 24 hrs by microdilution susceptibility method
- Assay type: functional
measurement.name: MIC
# include the unit after the value

Request: Give the reported MIC for this compound. C=CCSc1nc2ccc(NC(=O)/C=C/c3ccccc3)cc2c(=O)n1Cc1ccccc1
Response: 8 mg/L

Request: Write down MIC measured for item Nc1ccc2ncn(Cc3ccccc3)c(=O)c2c1
Response: 4 mg/L

Request: Note MIC for the compound shown: C=CCSc1nc2ccc(NC/C=C/c3ccccc3)cc2c(=O)n1Cc1ccccc1
Response: 16 mg/L

Request: Supply MIC value. Item: O=c1c2cc([N+](=O)[O-])ccc2nc(S)n1Cc1ccccc1
Response: 16 mg/L

----------
- Tested on: Bacillus subtilis
- experimental.details: Antibacterial activity against Bacillus subtilis after 24 hrs by microdilution susceptibility method
- Format: functional
Below, each of the compounds is paired with its reported MIC value.

Some solved entries appear below for comparison.
{"compound": "CSc1nc2ccc(N(C/C=C/c3ccccc3)C/C=C/c3ccccc3)cc2c(=O)n1Cc1ccccc1", "MIC": "8 µg/mL"}
{"compound": "C=CCSc1nc2ccc(NC(=O)/C=C/c3ccccc3)cc2c(=O)n1Cc1ccccc1", "MIC": "8 µg/mL"}
{"compound": "Cc1ccc2nc(S)n(Cc3ccccc3)c(=O)c2c1", "MIC": "4 µg/mL"}
{"compound": "C=CCSc1nc2ccc(NC/C=C/c3ccccc3)cc2c(=O)n1Cc1ccccc1", "MIC": "4 µg/mL"}

Request: Identify the reported MIC for the following entry. Nc1ccc2ncn(Cc3ccccc3)c(=O)c2c1
Response: 2 µg/mL

Request: Quick one: give measured MIC for C=CCSc1nc2ccc(N(C/C=C/c3ccccc3)C/C=C/c3ccccc3)cc2c(=O)n1Cc1ccccc1
Response: 4 µg/mL

Request: Give recorded MIC. CC(=O)NS(=O)(=O)c1ccc(N)cc1 [SULFACETAMIDE]
Response: 2 µg/mL

Request: Give a short answer stating reported MIC for O=c1c2cc([N+](=O)[O-])ccc2nc(S)n1Cc1ccccc1 .
Response: 8 µg/mL
